Every entry's value here was drawn from patent US20090143279A1.

- Tested on: cytochrome c
- Type: cell-based, mouse
- measurement_parameters: composite Z-score vs DMSO; Conc 20 μM
readout_kind: cyt c

Worked cases, answers included:
C[C@]12CCC(=O)C(O)=C1CC[C@@H]1[C@@H]2CC[C@]2(C)C(=O)CC[C@@H]12 ... −0.115
C/C=C(\C)C(=O)O[C@H]1C[C@@H](OC(C)=O)[C@@]2(C(=O)OC)CO[C@H]3[C@@H](O)[C@@](C)([C@]45O[C@@]4(C)[C@H]4C[C@@H]5O[C@@H]5OC=C[C@@]54O)[C@H]4[C@]1(CO[C@]4(O)C(=O)OC)[C@@H]32 ... −0.421

With those in mind, consider the next compound.
// lookup cyt c for CC(=O)c1ccc(O)c(CC=C(C)C)c1 [3-prenyl-4-hydroxyacetophenone]
0.220

----------
- Test system: C2C12 myotubes
- measurement_parameters: composite Z-score vs DMSO; Conc 20 μM
Where a SMILES comes first, the peptide text is derived from it.
Threshold-based label: Viability under -1 gives 1, Viability not under -1 gives -1.

Worked examples follow.
CO/N=C(\C(=O)N[C@@H]1C(=O)N2C(C(=O)O)=C(COC(C)=O)CS[C@H]12)c1csc(N)n1 ... 1
COC1=CC(=O)C(O)=C/C1=C\C=C\c1ccccc1 ... 1
COc1cc2c(cc1OC)[C@@H]1C(=O)c3ccc4c(c3O[C@@H]1CO2)CC(C(C)C)O4 (stereo partly drawn) [beta-dihydrorotenone, reference compound] ... -1
CC[C@@H](C)C(=O)O[C@H]1[C@H](O)[C@H]2[C@@H](CN3C[C@@H](C)CC[C@H]3[C@@]2(C)O)[C@@H]2C[C@]34O[C@]5(O)[C@@H](OC(=O)[C@](C)(O)[C@@H](C)O)CC[C@@]3(C)[C@@H]5[C@@H](OC(C)=O)[C@@H](OC(C)=O)[C@H]4[C@@]21O (stereo in doubt) ... -1
CC(C)C[C@H](NC(=O)CN)C(=O)N[C@@H](Cc1ccccc1)C(=O)O [glycylleucylphenylalanine] (H-Gly-Leu-Phe-OH) ... -1

Consider the additional compound presented here.
# strict comparison: is reported Viability < -1? input = CC1=C(CCC(=O)O)c2cc3[nH]c(cc4nc(cc5[nH]c(cc1n2)c(C)c5C(C)O)C(C)=C4C(C)O)c(C)c3CCC(=O)O (stereo not drawn)
1

----------
- System: reactive oxygen species
- Type: cell-based, mouse
- measurement_parameters: composite Z-score vs mock-treated (DMSO) wells; Conc 20 μM
readout_kind: ROS
Respond numerically, and do not add a unit to the figure.

Worked cases, answers included:
CC1(C)OC(=O)C=CC2(C)C1CC(O)C1(C)C2CCC2(C)C(c3ccoc3)OC(=O)C3OC321 (stereo not shown) [obacunol] ... −0.134
C=CC(C1=CC(=O)C(OC)=CC1=O)c1ccc(OC)cc1 (stereo not shown) [4,4′-dimethoxydalbergione] ... −0.802
CC(=O)O[C@@H]1C=C[C@]2(C)C(C[C@@H](OC(C)=O)[C@]3(C)C4=CC(=O)O[C@H](c5ccoc5)[C@@]4(C)CCC23)C1(C)C (stereo partly shown) [deoxygedunol acetate] ... 1.251
CC1(C)C=Cc2cc3ccc(=O)oc3cc2O1 [xanthyletin] ... 0.217
Cc1cc(O)cc(O)c1C(=O)O [orsellinic acid] ... 1.236

Field: ROS (reactive oxygen species). Entry: C=C1C(=O)O[C@H]2C[C@@H]1C(OC(C)=O)C/C(C)=C/CC/C(C)=C/CC[C@@]2(C)O (stereo partly shown) [crassin acetate]
−1.394

Field: ROS (reactive oxygen species). Entry: CC(C)c1c(O)ccc2c1CCC1[C@@](C)(C=O)CCC[C@]21C (stereo partly shown) [totaralolal]
1.617

Field: ROS (reactive oxygen species). Entry: C[C@@H]1C(=O)O[C@H]2[C@H]1CC[C@@]1(C)C=CC(=O)[C@@]3(C)O[C@@]213 [epoxy (4,5alpha)-4,5-dihydrosantonin]
−1.367

----------
- Test system: cellular dehydrogenase activity
- measurement_parameters: composite Z-score vs DMSO; Conc 20 μM
Please enter y where MTT is greater than or equal to -0.05, and n where it is lower.

Worked examples follow.
CC(=O)O[C@H]1CC[C@@]2(C)C(=CC[C@H]3[C@@H]4CC[C@H]([C@H](C)CCCC(C)C)[C@@]4(C)CC[C@@H]32)C1 [cholesteryl acetate] ... n
COC(=O)C1(C)CCCC2(C)c3ccc(C(C)C)cc3C(=O)CC12 (centres unmarked) ... y
Nc1nc2c(ncn2[C@H]2C[C@H](O)[C@@H](CO)O2)c(=O)[nH]1 ... n

Given "COc1cc2c(c(OC)c1OC)-c1ccc(=O)c(O)cc1[C@@H](NC(C)=O)CC2" , state whether its MTT is at least -0.05.
n

Given "C[C@@]12CCc3occc3[C@H]1CC[C@@]13C[C@@H](CC[C@H]12)[C@@](O)(CO)C3" , state whether its MTT is at least -0.05.
y

Given "c1ccc2c(c1)CN1CCCC1=N2" , state whether its MTT is at least -0.05.
y

Given O=C(c1ccccc1)c1ccc2n1CCC2C(=O)O (centres unmarked) , state whether its MTT is at least -0.05.
n

Given "NCC[C@H](O)C(=O)N[C@@H]1C[C@H](N)[C@@H](O[C@H]2O[C@H](CN)[C@@H](O)[C@H](O)[C@H]2O)[C@H](O)[C@H]1O[C@H]1O[C@H](CO)[C@@H](O)[C@H](N)[C@H]1O" , state whether its MTT is at least -0.05.
n

----------
- Tested on: nuOXPHOS transcripts
- Assay type: cell-based, mouse
- measurement_parameters: 20 μM; composite Z-score vs DMSO
Threshold-based label: nucOX under 0.2 gives true (1), nucOX not under 0.2 gives false (0).

Worked examples follow.
CN1Cc2c(N)cccc2C(c2ccccc2)C1 (centres unmarked) [nomifensin] ... true (1)
Cc1cc(=O)[nH]c(=S)[nH]1 [methylthiouracil] ... true (1)

# strict comparison: is reported nucOX < 0.2? input = CCN(CC)CCNC(=O)c1cc(S(C)(=O)=O)ccc1OC [tiapride]
true (1)

# strict comparison: is reported nucOX < 0.2? input = OC(c1cc(C(F)(F)F)nc2c(C(F)(F)F)cccc12)C1CCCCN1 (centres unmarked) [mefloquine]
false (0)

----------
- System: nuOXPHOS transcripts
- Type: cell-based, mouse
- measurement_parameters: composite Z-score vs DMSO; Conc 20 μM
Threshold-based label: nucOX under 0.1 gives Criterion met, nucOX not under 0.1 gives Criterion not met.

Worked examples follow.
O=C(O)CF [sodium fluoroacetate] ... Criterion not met
C[C@@]12CCc3occc3[C@H]1CC[C@@]13C[C@@H](CC[C@H]12)[C@@](O)(CO)C3 [cafestol] ... Criterion met

# strict comparison: is reported nucOX < 0.1? input = CC[C@H]1OC(=O)[C@H](C)[C@@H](O[C@H]2C[C@@](C)(OC)[C@@H](O)[C@H](C)O2)[C@H](C)[C@@H](O[C@@H]2O[C@H](C)C[C@H](N(C)C)[C@H]2O)[C@](C)(OC)C[C@@H](C)C(=O)[C@H](C)[C@@H](O)[C@]1(C)O [clarithromycin]
Criterion met

----------
Recorded Viability for the following compounds
- Tested on: C2C12 myotubes
- measurement_parameters: composite Z-score vs mock-treated (DMSO) wells; concentration of each compound in μM
Respond numerically, and do not add a unit to the figure.

Worked cases, answers included:
CC(C(=O)O)[C@H]1CCC2C3CC=C4C[C@@H](O)CC[C@]4(C)C3CC[C@@]21C (stereo partly shown) ... −0.295
CN1Cc2c(ccc3c2OCO3)[C@@H]2[C@H]1c1cc3c(cc1C[C@@H]2O)OCO3 [(+)-chelidonine] ... −1.005
O=C(CC[N+](=O)[O-])OC[C@H]1O[C@@H](O)[C@H](OC(=O)CC[N+](=O)[O-])[C@@H](OC(=O)CC[N+](=O)[O-])[C@@H]1OC(=O)CC[N+](=O)[O-] ... 0.158

With those in mind, consider the next compound.
// lookup Viability for COc1ccc([C@H]2COc3c(ccc(O)c3OC)C2)c(OC)c1O [(−)-duartin]
1.175

----------
- System: mitochondrial membrane potential
- Assay type: cell-based, mouse
- measurement_parameters: normalized composite Z-score vs mock-treated (DMSO) wells; Conc 20 μM
Threshold-based label: ΔΨm under -0.4 gives yes (1), ΔΨm not under -0.4 gives no (0).

Worked examples follow.
COC(=O)C[C@H]1C(C)(C)[C@@H](O)[C@@H]2CC3=C4CC(O)O[C@@H](c5ccoc5)[C@]4(C)CCC3[C@@]1(C)C2=O (stereo partly drawn) [3,16-dideoxymexicanolide-3beta-diol] ... no (0)
COC(=O)c1c(OC)cc2c(c1C)Oc1c(Cl)c(O)c(Cl)c(C)c1C(=O)O2 [gangaleoidin] ... yes (1)
C=C1CC[C@H]2O[C@]2(C)CC[C@@H]2[C@@H]1CC2(C)C [carylophyllene oxide] ... no (0)
CC1C(=NO)CC2CC1C2(C)C (centres unmarked) [3-pinanone oxime] ... yes (1)

Consider the additional compound presented here.
# strict comparison: is reported ΔΨm < -0.4? input = CC1=CC(=O)CC(C)(C)[C@@]1(O)/C=C/C(C)=C\C(=O)O [abscisic acid]
yes (1)
